target_under_test: CYP2C9 (Homo sapiens, UniProt P11712)
Construct: containing HLM (0.2 mg/mL), phosphate buffer (100 mM, pH 7.4); from tissue; host or cells: liver microsomes (HLM)
Sequence (P11712 whole entry): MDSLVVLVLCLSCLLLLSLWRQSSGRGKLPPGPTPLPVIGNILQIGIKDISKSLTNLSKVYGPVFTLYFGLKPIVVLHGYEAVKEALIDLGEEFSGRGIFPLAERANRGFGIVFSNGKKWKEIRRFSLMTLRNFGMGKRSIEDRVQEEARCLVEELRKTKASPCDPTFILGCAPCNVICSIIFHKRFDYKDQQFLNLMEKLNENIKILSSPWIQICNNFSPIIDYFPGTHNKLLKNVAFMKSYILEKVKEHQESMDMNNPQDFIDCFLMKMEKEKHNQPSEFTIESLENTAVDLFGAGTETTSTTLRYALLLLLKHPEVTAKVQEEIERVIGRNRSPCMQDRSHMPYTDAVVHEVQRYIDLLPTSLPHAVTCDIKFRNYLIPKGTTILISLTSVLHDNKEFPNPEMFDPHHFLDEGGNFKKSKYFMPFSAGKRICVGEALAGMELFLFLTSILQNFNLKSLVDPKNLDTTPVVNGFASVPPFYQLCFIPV
assay_info: CYP liver enzyme inhibition experiment, CYP-2C9
Assay type: in vitro ADME
conditions: human liver microsomes, pH 7.4, probe toluenesulfonylurea (tolbutamide), 100 µM, at 10 μM, read-out: inhibitory activity against CYP-2C9
Listed next: entries and their corresponding inhibition at 30 min, 10 µM.

compound	inhibition at 30 min, 10 µM
Cc1cnc(-c2cc(N3CCc4nc(N5CCC(O)CC5)ncc4C3C)ncc2Cl)c(C)c1 (racemic)	~52%

Note: attention shifts to another entry.
Which measured inhibition at 30 min, 10 µM value corresponds to Cc1cnc(-c2cc(N3CCc4nc(N5CCC(O)CC5)ncc4[C@H]3C)ncc2Cl)c(C)c1 ?
~26%

###

assay_info: Rat pharmacokinetics experiments
Format: in vivo, Sprague-Dawley rats
conditions: male, Sprague-Dawley, plasma, intravenous injection, 2 mg/kg, read-out: Clearance CL
quantity_kind: clearance (mL/min/kg)

compound	quantity_kind	quantitative_readout
Cc1cnc(-c2cc(N3CCc4nc(N5CCC(O)CC5)ncc4[C@H]3C)ncc2Cl)c(C)c1 [Compound B1]	clearance	14.4

(A) Cc1cnc(-c2cc(N3CCc4nc(N5CCC(O)CC5)ncc4C3)ncc2Cl)c(C)c1 [Compound A-55, reference compound]
(B) Cc1cnc(-c2cc(N3CCc4nc(N5CCC(O)CC5)ncc4C3C)ncc2Cl)c(C)c1 (racemic) [B]
Sorting ascending by clearance, which comes first: A or B ? Please indicate the selected item by its label.
B

###

assay_info: Rat pharmacokinetics experiments
Format: in vivo, Sprague-Dawley rats
conditions: male, Sprague-Dawley, plasma, po, 10 mg/kg, oral dose 10 mg/kg, 8 hours, read-out: plasma concentration after 8 hours in terms of molecular weight conversion
quantity_kind: concentration at 8 h (nM)

(1) Cc1cnc(-c2cc(N3CCc4nc(N5CCC(O)CC5)ncc4C3C)ncc2Cl)c(C)c1 (racemic) [B]
(2) Cc1cnc(-c2cc(N3CCc4nc(N5CCC(O)CC5)ncc4[C@H]3C)ncc2Cl)c(C)c1 [Compound B1]
Hi, I'm comparing 1 with 2 and wondering which one has the bigger number for concentration at 8 h. Any idea? // caller expects the label of the chosen entry
2
(2: 1340 nM, 1: 178 nM)

###

Test system: Hh signaling pathway
assay_info: NIH3T3-GRE-Luc luciferase reporter assay (primary assay)
Type: cell-based
conditions: vismodegib control in the same assay as the test compound of the line; read-out: SMO IC50 (nM) (vismodegib)
Method: NIH3T3 cells (CRL-1658, ATCC) were maintained in DMEM (Gibico) supplemented with 10% FBS (Hyclone). GRE-Luc plasmid was generated by inserting 8×Gli-1 responsive element (GRE) into the multiple cloning site of pGL4.26 vector (Promega). […] Following the 48 hours incubation, 40 μL/well of luciferase media (Brigh-Glo, Promega) was added to the cells. […] Luminescence signal was measured with plate reader (PHERAstar FS, BMG). […]
quantity_kind: IC50 (nM)
Respond numerically; units are nM and should not be typed.

Given the compound CS(=O)(=O)c1ccc(C(=O)Nc2ccc(Cl)c(-c3ccccn3)c2)c(Cl)c1 [vismodegib, reference compound] , what is its reported IC50?
26

###

target_under_test: CYP1A2 (Homo sapiens)
Construct: containing HLM (0.2 mg/mL), phosphate buffer (100 mM, pH 7.4); from tissue; host or cells: liver microsomes (HLM)
Sequence (P05177 whole entry): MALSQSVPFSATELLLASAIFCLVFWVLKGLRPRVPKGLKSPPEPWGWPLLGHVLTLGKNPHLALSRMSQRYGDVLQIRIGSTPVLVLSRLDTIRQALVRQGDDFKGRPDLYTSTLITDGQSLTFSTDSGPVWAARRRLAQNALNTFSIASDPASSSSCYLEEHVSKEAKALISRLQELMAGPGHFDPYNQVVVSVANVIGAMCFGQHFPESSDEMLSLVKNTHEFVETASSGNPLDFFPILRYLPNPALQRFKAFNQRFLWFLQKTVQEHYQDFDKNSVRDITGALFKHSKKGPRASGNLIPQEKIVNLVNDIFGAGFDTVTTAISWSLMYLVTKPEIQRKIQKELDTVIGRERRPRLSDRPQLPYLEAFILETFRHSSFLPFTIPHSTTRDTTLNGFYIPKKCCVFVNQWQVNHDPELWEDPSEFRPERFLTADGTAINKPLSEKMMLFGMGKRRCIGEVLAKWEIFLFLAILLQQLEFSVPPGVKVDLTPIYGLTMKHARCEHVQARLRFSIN
assay_info: CYP liver enzyme inhibition experiment, CYP-1A2
Type: in vitro ADME
conditions: human liver microsomes, pH 7.4, probe phenacetin, test compound 10 μM, HLM, phenacetin 30 μM, read-out: CYP-1A2 Inhibitory rate (%)
quantity_kind: inhibition at 10 min, 10 µM (%)

compound	result_unit	quantitative_readout
Cc1cnc(-c2cc(N3CCc4nc(N5CCC(O)CC5)ncc4C3C)ncc2Cl)c(C)c1 (racemic)	%	21
Cc1cnc(-c2cc(N3CCc4nc(N5CCC(O)CC5)ncc4[C@H]3C)ncc2Cl)c(C)c1	%	22

###

target_under_test: CYP3A4 (Homo sapiens, UniProt P08684)
Construct: containing HLM (0.2 mg/mL), phosphate buffer (100 mM, pH 7.4); from tissue; host or cells: liver microsomes (HLM)
Sequence (P08684 whole entry): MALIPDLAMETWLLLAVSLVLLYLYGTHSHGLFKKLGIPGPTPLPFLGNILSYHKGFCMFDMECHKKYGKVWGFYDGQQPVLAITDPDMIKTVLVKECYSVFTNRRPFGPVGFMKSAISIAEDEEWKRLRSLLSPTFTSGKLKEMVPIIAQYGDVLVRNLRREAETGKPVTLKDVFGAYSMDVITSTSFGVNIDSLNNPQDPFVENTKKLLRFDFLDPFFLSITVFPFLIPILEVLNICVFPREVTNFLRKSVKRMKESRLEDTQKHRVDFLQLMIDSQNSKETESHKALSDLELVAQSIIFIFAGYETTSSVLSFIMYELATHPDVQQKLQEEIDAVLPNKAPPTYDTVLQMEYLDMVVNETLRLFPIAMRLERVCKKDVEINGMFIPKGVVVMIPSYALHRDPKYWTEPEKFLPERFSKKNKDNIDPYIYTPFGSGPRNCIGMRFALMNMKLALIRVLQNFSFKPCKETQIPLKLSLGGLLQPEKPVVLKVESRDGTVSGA
assay_info: CYP liver enzyme inhibition experiment, CYP-3A4
Type: in vitro ADME
conditions: human liver microsomes, pH 7.4, probe midazolam, test compound 10 μM, HLM, midazolam 1 μM, read-out: CYP-3A4 Inhibitory rate (%)
quantity_kind: inhibition at 10 min, 10 µM (%)

compound	result_unit	quantitative_readout
Cc1cnc(-c2cc(N3CCc4nc(N5CCC(O)CC5)ncc4[C@H]3C)ncc2Cl)c(C)c1	%	20
Cc1cnc(-c2cc(N3CCc4nc(N5CCC(O)CC5)ncc4C3C)ncc2Cl)c(C)c1 (racemic)	%	21

The measured values listed here are drawn from patent US10919889B2.
